Biological target: Lysine-specific demethylase 4C (Homo sapiens) (UniProt Q9H3R0)
Sequence (Q9H3R0 1-420 limits assumed): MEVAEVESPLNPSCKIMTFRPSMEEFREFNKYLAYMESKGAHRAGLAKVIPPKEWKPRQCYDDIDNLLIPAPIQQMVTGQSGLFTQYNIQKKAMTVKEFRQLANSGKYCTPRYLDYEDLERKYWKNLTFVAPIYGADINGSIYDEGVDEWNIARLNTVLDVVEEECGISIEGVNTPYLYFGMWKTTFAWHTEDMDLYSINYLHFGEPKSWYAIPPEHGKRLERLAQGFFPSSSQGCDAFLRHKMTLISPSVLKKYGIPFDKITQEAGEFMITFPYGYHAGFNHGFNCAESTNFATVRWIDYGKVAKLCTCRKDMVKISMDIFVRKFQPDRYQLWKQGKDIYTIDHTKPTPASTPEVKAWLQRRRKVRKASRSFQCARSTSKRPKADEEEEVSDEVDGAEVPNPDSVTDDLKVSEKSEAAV
Assay: inhibitors of GASC-1 histone demethylase, primary screen, biochemical, fluorescence, DELFIA europium (AID 2099);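 also: signal counts dimethyl H3K9 product captured on neutravidin plate; 0% = median of DMSO wells and 100% = 0.3 times that DMSO median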
Conditions: GST-JMJD2C(1-420) H3K9me3 demethylation, at 2.35 µM, active compounds read high
Out of some 330,000 compounds screened, about 230 (0.07%) were called active. The sample as a whole holds a higher share of actives than the screen did.
Reported inhibition values for a set of compounds

{"compound": "CCC1(C)N(O)C(C)(C)C(c2ccc(OC)cc2)=[N+]1[O-] (centres undefined)", "inhibition / %": 1.82}
{"compound": "Cc1cc(NC(=O)Nc2c[nH]c(=O)[nH]c2=O)ccc1Br", "inhibition / %": 53.4}
{"compound": "Cc1ccccc1NC(=O)N1CCCC1C(=O)NCc1ccccc1 (centres undefined)", "inhibition / %": 5.47}
{"compound": "O=C(OCC1O[C@@H](OC(=O)c2cc(O)c(O)c(O)c2)[C@@H](OC(=O)c2cc(O)c(O)c(O)c2)[C@@H](OC(=O)c2cc(O)c(O)c(O)c2)[C@@H]1OC(=O)c1cc(O)c(O)c(O)c1)c1cc(O)c(O)c(O)c1 (some centres undefined)", "inhibition / %": 97.3}
{"compound": "CCCC(=O)N1CCC(CCC(=O)NC2CC2)CC1", "inhibition / %": 33.1}
{"compound": "CC(C)CCN1CCN(Cc2cn[nH]c2C2CCCCC2)CC1CCO (centres undefined)", "inhibition / %": -11.2}
{"compound": "COC(=O)C1C(=O)CC(C)(O)C(C(=O)OC)C1c1ccc2c(c1)OCO2 (centres undefined)", "inhibition / %": -4.99}
{"compound": "COc1cc(OC)cc(-c2nnc(N(C)C(=O)c3ccncc3)s2)c1", "inhibition / %": -7.55}
{"compound": "Cc1cc(NC(=O)[C@H](C)NC(=O)c2ccco2)ccc1Br", "inhibition / %": -9.73}
{"compound": "CN(C)c1nc(N)nc(CSc2nnnn2-c2cccc3ccccc23)n1", "inhibition / %": -13.8}
{"compound": "COc1cccc(COC(=O)C2CCN(S(=O)(=O)c3cccs3)CC2)c1OC", "inhibition / %": -2.56}
{"compound": "CCc1ccc(-c2nnn(Cc3nn[nH]n3)n2)cc1", "inhibition / %": 57.7}
{"compound": "C=CCc1cc(S(=O)(=O)c2ccc(O)c(CC=C)c2)ccc1O", "inhibition / %": 11.5}
{"compound": "CCC(C(=O)NCCC(C)C)N(Cc1ccccc1Cl)C(=O)c1snc(C(N)=O)c1N (centres undefined)", "inhibition / %": -1.98}
{"compound": "OCCC1CN(Cc2ccc3nsnc3c2)CCN1C1CCCC1 (centres undefined)", "inhibition / %": -2.72}
{"compound": "CCN1C(=O)C(=O)N(CC(=O)Nc2cc(C)ccc2C)C1=O", "inhibition / %": 8.4}
{"compound": "COc1ccc(C(CC(=O)c2ccccc2)S(=O)(=O)c2ccccc2)cc1 (centres undefined)", "inhibition / %": -0.656}
{"compound": "CCC(CO)Oc1cc(NC(=O)c2cccc(F)c2)c2ncn(C(C)C)c2c1 (centres undefined)", "inhibition / %": -5.85}
{"compound": "CCOc1ccccc1NC(=O)NC1CCCCCCC1", "inhibition / %": 3.73}
{"compound": "CN1C(=O)c2ccccc2C(C(=O)NCCCN2CCCC2)C1c1c[nH]c2ccccc12 (centres undefined)", "inhibition / %": -5.55}
{"compound": "COC(=O)c1c(NC(=O)CN(c2ccc(C)c(C)c2)S(C)(=O)=O)sc2c1CCCC2", "inhibition / %": 5.54}
{"compound": "CCOC(=O)C1=C(COC(=O)[C@H](C)NS(=O)(=O)c2ccccc2F)NC(=O)NC1C (some centres undefined)", "inhibition / %": 0.99}
{"compound": "CCN1N=C(c2ccccc2)CCC1=O", "inhibition / %": 2.88}
{"compound": "CCOC(=O)c1ccc(NC(=S)N2CCN(c3ccccn3)CC2)cc1", "inhibition / %": 21.6}
{"compound": "O=C1CCC(=O)N1CCOP1(=O)COc2ccccc2OC1", "inhibition / %": 2.42}
{"compound": "O=C(Cc1cccs1)NCc1cccc(C(F)(F)F)c1", "inhibition / %": 2.56}
{"compound": "CC1CCCCC1NC(=O)Cn1cnc2c1c(=O)n(C)c(=O)n2C (centres undefined)", "inhibition / %": 6.58}
{"compound": "Cc1nn(C)c(Cl)c1CN1CCC(Oc2ccc(C(=O)N3CCCC3)cc2)CC1", "inhibition / %": 36.3}
{"compound": "CCCCc1ccc(S(N)(=O)=O)cc1", "inhibition / %": 1.85}
{"compound": "C/C(=N\\NC(=O)COc1ccc(C)cc1[N+](=O)[O-])c1ccc2c(c1)OCCO2", "inhibition / %": 9.39}
{"compound": "COc1ccc(C2(CNC(=O)Cc3ccc(OC)c(OC)c3)CCCC2)cc1", "inhibition / %": -23.7}
{"compound": "COc1cccc2cc(C(=O)NCc3ccc(C)cc3)c(=N)oc12", "inhibition / %": 0.845}
{"compound": "CCc1ccc(-c2nnn(Cc3nc4ccccc4s3)n2)cc1", "inhibition / %": 51.2}
{"compound": "O=C1C=C(c2ccccc2)CCC1", "inhibition / %": -14.3}

###

Biological target: Lysine-specific demethylase 4C (Homo sapiens) (UniProt Q9H3R0)
Assay: inhibitors of GASC-1 histone demethylase, primary screen, biochemical, fluorescence, DELFIA europium (AID 2099);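 also: signal counts dimethyl H3K9 product captured on neutravidin plate; 0% = median of DMSO wells and 100% = 0.3 times that DMSO median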
Settings: GST-JMJD2C(1-420) H3K9me3 demethylation, at 2.35 µM, active compounds read high
About 230 (0.07%) of roughly 330,000 compounds were called active. This excerpt belongs to a sample that is enriched for actives.

{"molecule": "CCCCN(CCCC)CCNC(=O)CN1C(=O)COc2ccc(S(=O)(=O)N3CCOCC3)cc21", "unit_symbol": "%", "inhibition": -8.15}
{"molecule": "COc1ccc(C)cc1S(=O)(=O)Nc1cc2c3c(c1)CCC(=O)N3CCC2", "unit_symbol": "%", "inhibition": -0.171}
{"molecule": "CN(CC1CCCO1)S(=O)(=O)c1ccc(C(=O)Nc2ccc([N+](=O)[O-])cc2)cc1 (stereo not given)", "unit_symbol": "%", "inhibition": -19.5}
{"molecule": "O=C(N/C(=C\\c1ccc([N+](=O)[O-])cc1)C(=O)N1CCOCC1)c1cccc(Br)c1", "unit_symbol": "%", "inhibition": -3.44}
{"molecule": "COC(C[C@@H](O)[C@H](C)[C@H](O)COCc1ccccc1)OC", "unit_symbol": "%", "inhibition": 13.4}
{"molecule": "CCC(=O)N1c2ccc(S(=O)(=O)NCc3ccco3)cc2CC1C (stereo not given)", "unit_symbol": "%", "inhibition": 15.7}
{"molecule": "CN(/C(=N/S(=O)(=O)c1cccs1)c1ccccc1)c1ccc(O)cc1", "unit_symbol": "%", "inhibition": -2.26}
{"molecule": "O=C(/C=C/c1cccs1)c1cc(Cl)ccc1OC(=O)N1CCOCC1", "unit_symbol": "%", "inhibition": 98.5}
{"molecule": "CCc1cc2c(=O)n(-c3ccccc3)c(SCC(=O)O)nc2s1", "unit_symbol": "%", "inhibition": -0.0126}
{"molecule": "CC1CC(C)(C)CC2(C1)NC(=O)N(CC(=O)Nc1nccs1)C2=O (stereo not given)", "unit_symbol": "%", "inhibition": 12}
{"molecule": "COCc1cc(C)nc2sc3c(=O)n(-c4cccc5ccccc45)nnc3c12", "unit_symbol": "%", "inhibition": -7.85}
{"molecule": "C[C@H](C(=O)CC(=O)OC(C)(C)C)[C@H](O)c1ccc(C(F)(F)F)cc1", "unit_symbol": "%", "inhibition": 1.41}
{"molecule": "Cc1ccc2nc(C)c3c(c2c1)N(c1ccccc1)CC3", "unit_symbol": "%", "inhibition": 0.549}
{"molecule": "O=[N+]([O-])c1ncc(Br)cc1Nc1ccccc1", "unit_symbol": "%", "inhibition": -32.6}
{"molecule": "O=C(NCc1ccccc1Cl)NC(=O)c1csc([N+](=O)[O-])c1", "unit_symbol": "%", "inhibition": -1.75}
{"molecule": "NS(=O)(=O)c1ccc(NC(=S)NNC(=O)c2cccs2)cc1", "unit_symbol": "%", "inhibition": 0.859}
{"molecule": "O=C(NCN1CCN(CCO)CC1)c1cnccn1", "unit_symbol": "%", "inhibition": -26.1}
{"molecule": "COc1ccc(NC(=O)CN(C)C(=O)c2cccc(S(=O)(=O)N3CCN(c4ccccc4)CC3)c2)cc1", "unit_symbol": "%", "inhibition": 38.9}
{"molecule": "O=C(CSc1nc(=O)n2ccccc2n1)Nc1ccc2c(c1)OCCO2", "unit_symbol": "%", "inhibition": -1.16}
{"molecule": "CCc1ccc[n+](-c2nc([O-])sc2C=O)c1", "unit_symbol": "%", "inhibition": 22.8}
